# TESTED TARGET: T1, scHLA-B27-mmH (engineered HLA-B*27 ectodomain in-line fusion protein) (human (HLA-B*2705, beta-2 …))
# T1 construct: also called soluble HLA-B*27 fusion protein
# ASSAY INFO: SPR (Biacore), mAb captured, 25 C, PBS pH 7.2
MEASUREMENT LABEL: t1/2 (min)
One number for each entry, in min.

Please review the entries below; each comes with its answer.
>>> endpoint_result("H4H2538P (antibody, V domains shown) VH: QVQLVQSGAEVKKPGASVKVSCKASGYTFTDYYMHWVRQAPGQGLEWIGWINPNSGGSNFAQKFQGRVTMTRDTSISTAYMELSRLRSDDTAVYYCARKAGYTSSWFDYWGQGTLVTVSS VL: DIVMTQSPDSLAVSLGERATINCKSSQSVLYSFNNKNYLSWYQQKPGQPPKLLIYWASTRESGVPDRFSGSGSGTDFTLTISSLQAEDAAVYYCQQYYSMITFGQGTRLEIK")
69
>>> endpoint_result("H4H2477N2 (antibody, V domains shown) VH: QVQLQQWGAGLLKPSETLSLTCAVYGGSFSDYYWSWIRQPPGKGLEWIGEINHRGNTNYNPSLKSRVTISVDTSKNQFSLKLRSVTAADMAVYYCARIQLWLRGYDYYGMDVWGQGTTVTVSS VL: DIQMTQSPSSLSASVGDRVTITCRASQGIRNDLGWYQQKPGKAPKRLIYAASSLQGGVPSRFSGSGSGTEFSLTISSLQPEDFASYYCLQHNTYPWTFGQGTKVEIK")
20
>>> endpoint_result("H4H2542P (antibody, V domains shown) VH: EVQLVESGGGLVQPGRSLRLSCAASGFTFDDYAMHWVRQGPGKGLEWVSGISWNGRTMDHADSVKGRFTISRDNAKNSLYLQMNSLRNDDTGVYFCAKEGIPVAGTYFHFYGMDVWGQGTTVTVSS VL: EIVMTQSPATLSVSPGERVTLSCRASQSIGNYLAWYQQKPGQAPRLLIYGTSTRATGIPARFSGSGSGTEFTLTFSSLQSEDFAVYYCQQYNHWPLTFGGGTKVEIK")
2
>>> endpoint_result("H4H2559P (antibody, V domains shown) VH: QVQLVQSGAEVKKPGASVKVSCKASGYTFTDYFLHWVRQAPGQGLEWVGWINPNSGGTNFAQKFQGRVTMTRDTSISTAYMDLSRLRSDDTAVYYCARKAGYTSSWFDYWGQGTLVTVSS VL: DIVMTQSPDSLAVSLGERATINCKSSQSILYSFNNKNYLAWYQQKIGQPPMLLIYWASTRESGVPDRFSGSGSGTDFTLTISRLQAEDVAVYYCQQYYSSITFGQGTRLEIK")
65

Hi, could you look up t1/2 for each item in my list?
1. H4H2524P (antibody, V domains shown) VH: QVQLQESGPGLVKPSQTLSLTCTVSGGSISSDGYYWSWIRQHPGKGLEWIGYIYYSGNTYYNPSLKSRVTISVDTSKNHFSLKLSSVTAADTAVYYCTRDPRGITGTHYFDYWGQGTLVTVSS VL: EIVLTQSPGTLSLSPGERATLSCRTSQSVSSSYLAWYQQKPGQAPRLLIYGASSRATGIPDRFSGSGSGTDFTLTISRLEPEDFAVYYCQQFGTSLFTFGPGTKVDIK
2. H4H2718N (antibody, V domains shown) VH: EVQLVESGGGLVQPGRSLRLSCAASGFTFDEYAMHWVRQVPGKGLEWVSGISRNSGTIGYVDSVLGRFTISRDNAKNSLYLQMNSLRPEDTALYYCAKDKGWLLGMDVWGQGTTVTVSS VL: DIQMTQSPSSLSASVGDRVTITCRASQAIRNDLGWYQQKPGKAPKRLIYAASSLQSGVPSRFSGSGSGTEFALTISSLQPEDFATYYCLQYNSYLYTFGQGTKLEIK

Result:
1. 1
2. 4

Hi, could you look up t1/2 for each item in my list?
1. H4H2530S (antibody, V domains shown) VH: EVQLVESGPGLVKPSQTLSLTCTVSGGSINSGGSYWSWIRQHPGKGLEWIGYIYSSGNTYYKPSLKSRVTISLDTSKNQFSLKMSSVTAADTAIYYCARDPRGITGTHYFDYWGQGTTVTVSS VL: EIVLTQSPGTLSLSPGERATLSCRTSQSISNKYLAWYQQKPGQAPRLLIYGASTRATGIPDRFSGSGSGTDFTLTISRLEPEDFAVYYCQQFGTSLFTFGPGTKVEIK
2. H4H2560P (antibody, V domains shown) VH: QVQLVQSGAEVKKPGASVKVSCKASGYTFTGYFIHWVRQAPGQGLEWVGWINPTSGGTNYAQKFQGRVTMTRDTSISTAYMEMNSLRSDDTAVYYCARKAGYTSTWFDYWGQGTTVTVSS VL: DIVMTQSPDSLTVSLGERATINCKSSQSVLYSSKNKNYLAWYQQKPGQPPNLLVYWASTRESGVPDRFSGSGSGTDFTLTISSLQAEDVAVYYCQQYYSMITFGQGTRLEIK
3. H4H2526P (antibody, V domains shown) VH: QVQLVESGGGVVQPGRSLRLSCAASGFTFSRFGMDWVRQAPGKGLEWVAVISYDGKNKLYADSVKGRFTISRDNSKNTLYMQMNSLRAEDTAVYYCAKEGDNWNFVGDSWGQGTLVTVSS VL: DIQMTQSPSSVSASVGDRVTITCRASQDISARLAWYQQKPGKAPKLLIYAASSLQSGVPSRFSGSGSGTDFTLTISSLEPEDFATYYCQQADSFPYTLGQGTKLEIK
4. H4H2490N2 (antibody, V domains shown) VH: QVQLVQSGADVKWPGASVKVSCRASGYTFTGYYMHWVRQAPGQGLEWMGWINPNNGGTNYAQKFQGRVTMTRDTSITTVYMELSSLISDDTAVYYCARGEDLELRNYYYYGMDVWGQGTSVTVSS VL: DIQMTQSPSSLSASVGDRVTITCRASQSISSYLNWYQQKPGKAPKLLIYAASNLQSGVPSRFSGSGFGTDFTLTISSLQSEDFATYYCQQTYSTRTFGRGTKVEIK
5. H4H2528P (antibody, V domains shown) VH: QVQLVESGGGVVQPGRSLRLSCAASGFTFSRFGMDWVRQAPGKGLEWVAVISYDGKNKLYADSVKGRFTISRDNSKNTLYLQMNSLRAEDTAVYYCAKEGDNWNFVGDSWGQGTLVTVSS VL: DIQMTQSPSSVSASVGDRVTITCRASQGISARLAWYQQKPGKAPKLLIYAASSLQSGVPSRFSGSGSGTYFTLTISNLQPEDFATYYCQQANSFPYTLGQGTKLEIK

Result:
1: 43; 2: 16; 3: 348; 4: 2; 5: 151

Value source: patent US20130259876A1
